These data points were gathered from patent US20100031452A1.

# System: human intestinal cells (Caco-2)
# test_protocol: Caco-2 cytotoxicity test
# Format: cell-based
# conditions_used: Caco-2 human intestinal cells
Caco-2 cytotoxicity test (IC50 in g L^−1) reference

Examples with answers:
>>> observed_measurement("CCN(CCO)c1ccc(N=Nc2ccc([N+](=O)[O-])cc2)cc1 [Disperse Red 1]")
">1000 µg/mL"
>>> observed_measurement("Nc1ccc2cc(S(=O)(=O)[O-])cc(O)c2c1N=Nc1ccc(Cl)cc1C(F)(F)F.[Na+] [Acid Red 299]")
">1000 µg/mL"
>>> observed_measurement("O=C(Nc1cc(S(=O)(=O)[O-])cc2cc(S(=O)(=O)[O-])c(N=Nc3cc(Nc4nc(Cl)nc(Nc5ccc(S(=O)(=O)[O-])cc5)n4)ccc3S(=O)(=O)[O-])c(O)c12)c1ccccc1.[Na+].[Na+].[Na+].[Na+] [Reactive Red 4]")
"700 ± 60 µg/mL"

Next molecule, Caco-2 cytotoxicity test (IC50 in g L^−1) to be filled in.
Entry Nc1c(N=Nc2ccc(-c3ccc(N=Nc4cc(S(=O)(=O)[O-])c5ccccc5c4N)cc3)cc2)cc(S(=O)(=O)[O-])c2ccccc12.[Na+].[Na+] [Direct Red 28] ; Caco-2 cytotoxicity test (IC50 in g L^−1) = 300 ± 20 µg/mL
